Measured Percent Control, listed per entry for reference.
Test system: TNK1
assay conditions: Compound Concentration (nM):1000;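 note: KINOMEscan scanMAX binding as percent activity remaining versus control; lower means stronger binding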
value type: Percent Control (%)

molecule	value type	uom	reported
COC(=O)Nc1nc2ccc(Oc3ccc(NC(=O)Nc4cc(C(F)(F)F)ccc4F)cc3)cc2s1.Cl [GW693917A]	Percent Control	%	37
CCc1ccc(Oc2nccc(-c3c(-c4ccc(F)cc4)ncn3C3CCNCC3)n2)cc1 [SB-242719]	Percent Control	%	80
CCn1c(-c2nonc2N)nc2c(C#CC(C)(C)O)nc(OCCNC)cc21.Cl [GSK949675]	Percent Control	%	100
CC1=C(C(=O)Nc2ccc3[nH]ncc3c2)C(c2ccc(Cl)c(Cl)c2)CC(=O)N1 (stereo not drawn) [GSK299115A]	Percent Control	%	82
COc1cc(/C=N/Nc2ncnc3[nH]ncc23)ccc1O [GW578748X]	Percent Control	%	100
COc1cc2ncn(-c3cc(O[C@H](C)c4ccccc4Cl)c(C(N)=O)s3)c2cc1OC [GSK237701A]	Percent Control	%	82
NS(=O)(=O)c1ccc(N/N=C2\C(=O)Nc3ccc(Cl)cc32)cc1 [GW280670X]	Percent Control	%	100
COc1ccc(COc2ccc(Cc3cnc(N)nc3N)cc2OC)cc1 [GW632580X]	Percent Control	%	73
CCS(=O)(=O)c1ccc(OC)c(Nc2ncc(-c3cccc(F)c3)o2)c1 [GW621970X]	Percent Control	%	38

###

Test system: MST3
Construct: gene STK24
assay conditions: Compound Concentration (nM):1000

molecule	Percent Control [%]
COC(=O)Nc1nc2ccc(Oc3ccc(NC(=O)Nc4cc(C(F)(F)F)ccc4F)cc3)cc2s1.Cl [GW693917A]	95
COc1cc2ncn(-c3cc(O[C@H](C)c4ccccc4Cl)c(C(N)=O)s3)c2cc1OC [GSK237701A]	93
O=C(Nc1n[nH]c2nc(-c3ccc(O)cc3)c(Br)cc12)C1CC1 [SB-725317]	100
Cl.O=C(Nc1ccc(Oc2ccc3[nH]c(NC(=O)c4ccco4)nc3c2)cc1)Nc1cc(C(F)(F)F)ccc1F [GW683134A]	100
COc1cc(C)c(N(C)C(=O)CN(C)C)cc1Nc1nc(Nc2cccc(F)c2C(N)=O)c2cc[nH]c2n1 [GSK2219385]	93
CN(C)c1cc2c(Nc3ccc4c(cnn4Cc4ccccc4)c3)ncnc2cn1 [GW282974X]	90
NS(=O)(=O)c1ccc(N/N=C2\C(=O)Nc3ccc(Cl)cc32)cc1 [GW280670X]	100
COc1cc(/C=N/Nc2ncnc3[nH]ncc23)ccc1O [GW578748X]	93

###

System: EGFR(L747-T751del,Sins)
assay conditions: Compound Concentration (nM):1000
Known Percent Control of a selection of compounds

compound	measured on	uom	Percent Control
NS(=O)(=O)c1ccc(Nc2ncc(-c3ccccc3)o2)cc1 [GW572399X]	EGFR(L747-T751del,Sins)	%	100
CC(C)COC(=O)c1ccc2c(c1)/C(=C/Nc1ccc(S(N)(=O)=O)cc1)C(=O)N2 [GW416981X]	EGFR(L747-T751del,Sins)	%	60
Cl.O=C(O[C@H]1CN[C@H](C#Cc2cc3ncnc(Nc4ccc5c(cnn5Cc5ccccc5)c4)c3s2)C1)N1CCOCC1 [GSK200398A]	EGFR(L747-T751del,Sins)	%	24
Cc1cc(O)cc(C)c1/C=C/c1cncc(C(N)=O)c1 [GW435821X]	EGFR(L747-T751del,Sins)	%	100
Cl.O=C(Nc1ccc(Oc2ccc3[nH]c(NC(=O)c4ccccc4)nc3c2)cc1)Nc1cc(C(F)(F)F)ccc1F [GW709042A]	EGFR(L747-T751del,Sins)	%	82
COc1ccc2[nH]c3c4[nH]c5ccc(OC)cc5c4c4c(c3c2c1)C(=O)NC4=O [GW296115X]	EGFR(L747-T751del,Sins)	%	44
COc1cc(C)c(N(C)C(=O)CN(C)C)cc1Nc1nc(Nc2cccc(F)c2C(N)=O)c2cc[nH]c2n1 [GSK2219385]	EGFR(L747-T751del,Sins)	%	100
O=C(Nc1n[nH]c2nc(-c3ccc(O)cc3)c(Br)cc12)C1CC1 [SB-725317]	EGFR(L747-T751del,Sins)	%	100

Where these numbers come from: paper PMC7826789
